B1: CSNK1G1 (parent)
chain: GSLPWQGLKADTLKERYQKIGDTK

- Variants of: B1
- Test Summary: protein stability index of a GFP-peptide fusion (GPS, HEK-293T) (PSI 1-6); higher = more stable;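 also: lentivirally expressed fusions sorted by FACS into six bins by GFP to DsRed ratio, PSI derived from sequencing read proportions per bin multiplied by bin number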
- Condition Notes: c terminus: a fixed tail appended
Reported Endpoint: protein stability index
Response field accepts a number only; no unit should be typed.

Memo: G7M , reported protein stability index: 3.85

Memo: S2Q , reported protein stability index: 4.57

Memo: Q6N , reported protein stability index: 3.92

Memo: D11E , reported protein stability index: 4.13

Memo: A10I , reported protein stability index: 3.6

Memo: D11L , reported protein stability index: 3.76

Memo: A10L , reported protein stability index: 3.32

Memo: L3N , reported protein stability index: 4.09

Memo: P4F , reported protein stability index: 2.84

Memo: G7I , reported protein stability index: 3.52

Memo: R16L , reported protein stability index: 4.11

Memo: S2M , reported protein stability index: 4.07

Memo: G1R , reported protein stability index: 4.16

Memo: K19L , reported protein stability index: 3.74

Memo: Y17P , reported protein stability index: 4.88

Memo: S2K , reported protein stability index: 4.37

Memo: P4T , reported protein stability index: 4.08

Memo: R16S , reported protein stability index: 4.71

Memo: W5Y , reported protein stability index: 4.43

Memo: A10M , reported protein stability index: 3.7

Memo: D11C , reported protein stability index: 3.63

Memo: G7P , reported protein stability index: 4.38

Memo: K9P , reported protein stability index: 5.08

Memo: Y17K , reported protein stability index: 4.72

Memo: K9D , reported protein stability index: 4.25

Memo: G1Q , reported protein stability index: 4.03

Memo: I20Q , reported protein stability index: 4.36

Memo: K19S , reported protein stability index: 3.95

Memo: K14S , reported protein stability index: 3.88

Memo: G7D , reported protein stability index: 4.33

Memo: L3F , reported protein stability index: 3.71
